Below: a set of entries, each annotated with reported pIC50.
# study target: HDM2 protein (Homo sapiens, UniProt Q00987)
# Sequence (Q00987 whole entry): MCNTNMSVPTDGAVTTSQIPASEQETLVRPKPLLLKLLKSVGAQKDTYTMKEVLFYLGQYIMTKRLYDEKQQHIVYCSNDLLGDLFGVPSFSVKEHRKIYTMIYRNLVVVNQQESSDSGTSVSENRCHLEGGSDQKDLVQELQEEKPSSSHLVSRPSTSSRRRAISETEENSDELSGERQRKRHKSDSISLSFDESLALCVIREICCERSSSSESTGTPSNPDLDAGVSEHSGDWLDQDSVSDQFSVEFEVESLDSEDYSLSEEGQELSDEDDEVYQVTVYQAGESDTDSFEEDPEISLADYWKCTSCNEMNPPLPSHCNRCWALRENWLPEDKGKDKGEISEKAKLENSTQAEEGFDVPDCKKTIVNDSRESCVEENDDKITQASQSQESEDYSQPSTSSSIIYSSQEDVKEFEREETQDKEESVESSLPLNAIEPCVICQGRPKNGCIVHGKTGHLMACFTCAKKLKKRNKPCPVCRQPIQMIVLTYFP
# procedure summary: fluorescence polarization screening assay (FP IC50)
# Type: binding
# measurement context: class symbols
# Experimental: The compounds were evaluated to determine activity at the HDM2 protein by known methods such as the fluorescence polarization screening assay that measures the inhibitory concentration that achieves 50% of maximal activity (FP IC50) and the dissociation constant for inhibitor binding (FP Ki). [Zhang et al., J. Analytical Biochemistry 331: 138-146 (2004)].
pIC50: −log10 of the molar value.

Worked examples follow.
[[record]]
compound = "CCC[C@H]1N(C(=O)c2ncccc2C(F)(F)F)CCC[C@@]1(Oc1csc(C(F)(F)F)c1)C(=O)N1CCc2cc(Cl)ccc2C1CC(C)(C)C(=O)O (some centres unmarked) [Compound A64]"
val = "7.00 to 9.00"

[[record]]
compound = "CCC[C@H]1N(C(=O)c2ncccc2C(F)(F)F)CCC[C@@]1(Oc1csc(C(F)(F)F)c1)C(=O)N1CCc2cc(Br)ccc2C1CC(=O)O (some centres unmarked) [Compound A70]"
val = "7.00 to 9.00"

[[record]]
compound = "CCC[C@H]1N(C(=O)c2ncccc2C(F)(F)F)CCC[C@@]1(Oc1csc(C(F)(F)F)c1)C(=O)N1Cc2ccc(F)cc2C[C@H]1CN(C)C(=O)C(F)F"
val = "4.70 to 7.00"

[[record]]
compound = "CCC[C@H]1N(C(=O)c2ncccc2C(F)(F)F)CCC[C@@]1(Oc1csc(C(F)(F)F)c1)C(=O)N1CCc2ccc(C(N)=O)cc2C1"
val = "4.70 to 7.00"


Quick one: pIC50 for `CCC[C@H]1N(C(=O)c2ncccc2C(F)(F)F)CCC[C@@]1(Oc1csc(C(F)(F)F)c1)C(=O)N1CCc2ccc(OC)cc2C1` ?
4.70 to 7.00

Quick one: pIC50 for CCC[C@H]1N(C(=O)c2ncccc2C(F)(F)F)CCC[C@@]1(Oc1csc(C(F)(F)F)c1)C(=O)N1CCc2cc(Cl)sc2C1CC(C)(C)C(=O)O (some centres unmarked) ?
7.00 to 9.00

Quick one: pIC50 for `CCC[C@H]1N(C(=O)c2ncccc2C(F)(F)F)CCC[C@@]1(Oc1csc(C(F)(F)F)c1)C(=O)N1Cc2ccc(Cl)cc2C[C@@H]1C(=O)NC1CCOCC1` ?
7.00 to 9.00

Quick one: pIC50 for CCC[C@H]1N(C(=O)c2ncccc2C(F)(F)F)CCC[C@@]1(Oc1csc(C(F)(F)F)c1)C(=O)N1CCc2cc(Cl)ccc2C1COCC(=O)O (some centres unmarked) ?
7.00 to 9.00

Quick one: pIC50 for CCC[C@H]1N(C(=O)c2ncccc2C(F)(F)F)CCC[C@@]1(Oc1csc(C(F)(F)F)c1)C(=O)N1Cc2ccc(Cl)cc2C[C@@H]1C(C)CC(=O)O (some centres unmarked) ?
7.00 to 9.00

Quick one: pIC50 for `CCC[C@H]1N(C(=O)c2ncccc2C(F)(F)F)CCC[C@@]1(Oc1csc(C(F)(F)F)c1)C(=O)N1CCc2sc(C(=O)OCC)cc2C1` ?
4.70 to 7.00

Quick one: pIC50 for `CCC[C@H]1N(C(=O)c2ncccc2C(F)(F)F)CCC[C@@]1(Oc1csc(C(F)(F)F)c1)C(=O)N1Cc2ccc(F)cc2C[C@H]1CN1CCC(O)CC1` ?
4.70 to 7.00
